# tested-on: human recombinant adrenergic α2A receptor (Homo sapiens, UniProt P08913)
# Construct: expressed in transfected cells; host or cells: insect Sf9 cells
# Sequence (P08913 whole entry): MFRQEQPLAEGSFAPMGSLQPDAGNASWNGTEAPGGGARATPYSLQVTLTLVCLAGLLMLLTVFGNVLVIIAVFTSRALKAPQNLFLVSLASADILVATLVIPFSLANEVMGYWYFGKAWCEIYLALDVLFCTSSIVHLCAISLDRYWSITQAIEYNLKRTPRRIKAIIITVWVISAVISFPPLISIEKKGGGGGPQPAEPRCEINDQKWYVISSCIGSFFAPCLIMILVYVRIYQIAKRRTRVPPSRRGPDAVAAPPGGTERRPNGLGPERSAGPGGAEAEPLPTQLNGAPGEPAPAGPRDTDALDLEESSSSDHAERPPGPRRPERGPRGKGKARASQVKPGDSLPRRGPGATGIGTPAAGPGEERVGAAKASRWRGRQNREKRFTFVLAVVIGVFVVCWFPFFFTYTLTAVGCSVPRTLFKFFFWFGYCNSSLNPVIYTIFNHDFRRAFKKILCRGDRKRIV
# experimental-details: Radioligand binding, adrenergic α2A receptor ([3H]MK-912)
# details: 0.1 μM compound; Sf9 cells; 1 nM [3H]MK-912; read-out: Percentage inhibition of ligand binding, Adrenergic α2A
Entry flag: 1 (yes) if inhibition at 0.1 µM reaches 30%; 0 (no) if it does not.

Would you please look over these solved cases?
smiles | class-assignment
Cc1ccc2c(c1)c1c(n2-c2cscc2-c2ccc(C)s2)CCN(C)C1 | 1 (yes)
Cc1ccc2c(c1)c1c(n2-c2ccc3nc(C)ccc3c2)CCN(C)C1 | 0 (no)
Cc1ccc2c(c1)c1c(n2-c2ccc3c(c2)CCN(C=O)C3)CCN(C)C1 | 0 (no)

Hi team, for Cc1csc(-c2ccc(-n3c4c(c5cc(C)ccc53)CN(C)CC4)nc2)c1 , is the recorded inhibition at 0.1 µM at or above 30%?
1 (yes)

Hi team, for CNC(=O)c1ccc(-c2cccc(-n3c4c(c5cc(C)ccc53)CN(C)CC4)c2)cn1 , is the recorded inhibition at 0.1 µM at or above 30%?
0 (no)

Hi team, for CNC(=O)c1cc(-n2c3c(c4cc(C)ccc42)CN(C)CC3)cs1 , is the recorded inhibition at 0.1 µM at or above 30%?
1 (yes)

Hi team, for Cc1ccc2c(c1)c1c(n2-c2ccc3ccncc3c2)CCN(C)C1 , is the recorded inhibition at 0.1 µM at or above 30%?
1 (yes)

Hi team, for Cc1ccc2c(c1)c1c(n2-c2ccc(-c3cccnc3)cn2)CCN(C)C1 , is the recorded inhibition at 0.1 µM at or above 30%?
1 (yes)

Hi team, for Cc1ccc2c(c1)c1c(n2-c2ccc(-c3ccncc3)cn2)CCN(C)C1 , is the recorded inhibition at 0.1 µM at or above 30%?
0 (no)

Hi team, for Cc1ccc2c(c1)c1c(n2-c2ccccc2-c2ccncc2)CCN(C)C1 , is the recorded inhibition at 0.1 µM at or above 30%?
0 (no)

Hi team, for Cc1ccc2c(c1)c1c(n2-c2cccc(-c3cn[nH]c3)c2)CCN(C)C1 , is the recorded inhibition at 0.1 µM at or above 30%?
1 (yes)

Hi team, for Cc1ccc2c(c1)c1c(n2-c2cccc(-c3ccc(S(C)(=O)=O)cc3)c2)CCN(C)C1 , is the recorded inhibition at 0.1 µM at or above 30%?
1 (yes)

Hi team, for Cc1ccc2c(c1)c1c(n2-c2cscc2-c2cncc3ccccc23)CCN(C)C1 , is the recorded inhibition at 0.1 µM at or above 30%?
0 (no)

Hi team, for Cc1ccc2c(c1)c1c(n2-c2ccsc2)CCN(C)C1 , is the recorded inhibition at 0.1 µM at or above 30%?
0 (no)

Hi team, for Cc1ccc2c(c1)c1c(n2-c2ccccc2-c2ccc(F)nc2)CCN(C)C1 , is the recorded inhibition at 0.1 µM at or above 30%?
1 (yes)

Hi team, for Cc1ccc2c(c1)c1c(n2-c2ccc(-c3ccc(F)cc3)cn2)CCN(C)C1 , is the recorded inhibition at 0.1 µM at or above 30%?
1 (yes)

Hi team, for Cc1ccc2c(c1)c1c(n2-c2ccoc2)CCN(C)C1 , is the recorded inhibition at 0.1 µM at or above 30%?
0 (no)
